ASSAY_REMARKS: in vivo
Assay type: in vivo, mice
CONDITION_CONTEXT: male, CD-1, mouse, CSF, ip, 10 mg/kg, mice, IP 10 mg/kg, CSF, 480 min, mean of 3; read-out: CSF concentration C (mean)
METRIC: concentration at 480 min (ng/mL)
Number in ng/mL, nothing else.

Record CCc1nc2c(C)nc(C)cc2n1-c1ccc(CCNC(=O)NS(=O)(=O)c2ccc(C)cc2)cc1 [Grapiprant, reference compound] , field concentration at 480 min: 0.4

###

ASSAY_REMARKS: in vivo
Type: in vivo, mice
CONDITION_CONTEXT: male, CD-1, mouse, brain, ip, 10 mg/kg, mice, IP 10 mg/kg, brain, 1440 min, individual animals; read-out: Brain concentration, Final
METRIC: concentration at 1440 min (ng/g)
Entry rule: numbers only, all in ng/g.

For O=C(O)C1CCC2(CC1)CC(Nc1ncnc3[nH]c4c(F)cccc4c13)C2 (stereo not shown) the compound record lists concentration at 1440 min as 0
